tested on: DHFR in MDA-MB-468 lysates; construct: reactions containing 55 μg MDA-MB-468 lysate; endogenous in cells; host or cells: MDA-MB-468; assay: Lysate cellular thermal shift assay (CETSA) for DHFR; assay type: binding, Human; conditions: 10 μM, MDA-MB-468 lysate, 45 °C for 3 min; DMSO at 37 °C = 100%
recordedMetric: Normalized Band Density (%) of soluble DHFR

CC1(C)N=C(N)N=C(N)N1c1ccc(CCCCc2ccc(S(=O)(=O)F)cc2)cc1: greater than 100%
CCS(=O)(=O)O.CN(C)C(=O)c1cccc(COc2ccc(N3C(N)=NC(N)=NC3(C)C)cc2Cl)c1 [compound 139105, triazinate]: 86.05 ± 21.9%
CN(Cc1cnc2nc(N)nc(N)c2n1)c1ccc(C(=O)N[C@@H](CCC(=O)O)C(=O)O)cc1 [MTX, methotrexate]: greater than 100%
CC1(C)N=C(N)N=C(N)N1c1ccc(Cl)cc1: greater than 100%
